# System: PC-3
# protocolDescription: NCI tumour cell line growth inhibition, 48 h
Activity calls are given as the source filed them. Cut-off read from the data, not from the text of the source: active = GI50 up to about 1.1 µM and inactive = higher.
measuredEndpoint: GI50

Solved cases below.
[
  {
    "molecule": "CC(=O)OCC1OC(SC2=N/C(=C\\c3ccc(Br)s3)C(=O)N2CN2CCOCC2)C(OC(C)=O)C(OC(C)=O)C1OC(C)=O (centres undefined)",
    "result": "23 µM (inactive)"
  },
  {
    "molecule": "Nc1ccc(S(=O)(=O)Nc2nc3ccccc3nc2N2CCCCC2)cc1",
    "result": "59.3 µM (inactive)"
  },
  {
    "molecule": "CCCCCCCCCCCCCCCCNc1ccn(C2CC(O)C(COC(c3ccccc3)(c3ccccc3)c3ccc(OC)cc3)O2)c(=O)n1 (centres undefined)",
    "result": "> 100 µM (inactive)"
  },
  {
    "molecule": "O[C@@H]1[C@H](OC2c3ccccc3-c3ccccc32)[C@H](OCc2ccccc2)[C@@H]2OC[C@H]1O2",
    "result": "63.2 µM (inactive)"
  },
  {
    "molecule": "O=C(O[C@H](/C=C/c1ccccc1)P1(=O)N(Cc2ccccc2)[C@@H]2CCCC[C@H]2N1Cc1ccccc1)c1ccccc1",
    "result": "3.39 µM (inactive)"
  },
  {
    "molecule": "Cc1c(Cl)ccc2c1NC(=O)C2(O)CC(=O)c1ccc(Cl)cc1Cl (centres undefined)",
    "result": "> 50 µM (inactive)"
  },
  {
    "molecule": "CO[C@]12C[C@H](CNC(=O)c3cc(Br)c(Br)[nH]3)O[C@H]1NC(=O)N2",
    "result": "> 100 µM (inactive)"
  },
  {
    "molecule": "O=c1ccc2c(Cl)sc(Cl)c2[nH]1",
    "result": "> 100 µM (inactive)"
  }
]

Field: next molecule
Entry CCOP(=O)(OCC)/C(C#N)=C/c1cccn1N(C)C , GI50 reported as > 100 µM (inactive)
